Each entry below lists one item and its recorded half-life value.
- TEST SUMMARY: Half-life in 1N HCl at 37 degree C.
- Type: ADME
Use h as the unit, but write only the number.

| COMPOUND | half-life (h) |
| --- | --- |
| CC(C)N(/C=N\c1ccn(C2CC(F)C(CO)O2)c(=O)n1)C(C)C (configuration not stated) | 5.8 |

Attention now shifts to the item below.
Exam item: Look up half-life: CC(C)N(/C=N\c1ccn(C2CCC(CO)O2)c(=O)n1)C(C)C (configuration not stated)
Marked response: 3.9

---

Each entry below lists one item and its recorded EC50 value.
- TEST SUMMARY: The compound was tested for the antiviral activity against Rauscher murine leukemia virus in SC-1 cells
- Assay type: functional
- CONDITION SET: Mus musculus, read-out: ED50 (the source's name)
Use µM as the unit, but write only the number.

| MOLECULE | RESULT |
| --- | --- |
| CC(C)N(/C=N\c1ccn(C2CC(F)C(CO)O2)c(=O)n1)C(C)C (configuration not stated) | 518 |

Exam item: Look up EC50: CN(C)/C=N\c1ccn(C2CC(F)C(CO)O2)c(=O)n1 (configuration not stated)
Marked response: 214

Values compiled from ChEMBL document CHEMBL1126057.
